Every entry's value here was drawn from patent US7902156B2.

Tested on: mouse brain
assayExplanation: In situ cerebral perfusion with post-perfusion capillary depletion
Type: in vivo, mice
particulars: perfusion 5 min
No end group written: not given here.
measurementName: Volume of distribution, Capillaries (ml/100 g)

> print(dat)
                                  substance  recordedmeasurement
1  T F F Y G G C R G K R N N F K T K E Y (TFFYGGCRGKRNNFKTKEY-NH2) [Peptide 76]                   16
2  TFFYGGKRGKRNNFKTAEY [Peptide 79, T F F Y G G K R G K R N N F K T A E Y]                   52
3  TFFYGGCRGKKNNFKRAKY [Peptide 8, T F F Y G G C R G K K N N F K R A K Y]                  204

(a) TFFYGGCRGKRNNFKTKRY [Peptide 78, T F F Y G G C R G K R N N F K T K R Y]
(b) TFFYGGSRGNRNNFKTAKY [Peptide 25, T F F Y G G S R G N R N N F K T A K Y]
Between these two entries, a and b , state which has the higher Volume of distribution, Capillaries. Kindly give the label for the entry you pick.
b

====

Tested on: mouse brain
assayExplanation: In situ cerebral perfusion with post-perfusion capillary depletion
Format: in vivo, mice
particulars: perfusion 5 min, share of homogenate
No end group written: not given here.
measurementName: Volume of distribution, Capillaries % (%)

(1) TFFYGGCRGKRNNFKTEEY-NH2 [Peptide 67, T F F Y G G C R G K R N N F K T E E Y]
(2) TFFYGGKRGKRNNFKTAEY [Peptide 79, T F F Y G G K R G K R N N F K T A E Y]
Sorting ascending by Volume of distribution, Capillaries %, which comes first: 1 or 2 ? Kindly give the label for the entry you pick.
1

====

System: mouse brain
assayExplanation: In situ cerebral perfusion with post-perfusion capillary depletion
Assay type: in vivo, mice
particulars: perfusion 5 min, total brain
No end group written: not given here.
measurementName: Volume of distribution, Homogenate (ml/100 g)

(a) TFFYGGCRGKKNNFKRAKY [Peptide 8, T F F Y G G C R G K K N N F K R A K Y]
(b) TFFYGGKRGKRNNFKTAEY [Peptide 79, T F F Y G G K R G K R N N F K T A E Y]
Sorting ascending by Volume of distribution, Homogenate, which comes first: a or b ? Kindly give the label for the entry you pick.
b

(A) RFKYGGCLGNKNNFLRLKY [Peptide 90, R F K Y G G C L G N K N N F L R L K Y]
(B) TFFYGGCRAKRNNFKRAKY-NH2 [Peptide 5, T F F Y G G C R A K R N N F K R A K Y]
Sorting ascending by Volume of distribution, Homogenate, which comes first: A or B ? Kindly give the label for the entry you pick.
A
(A: 87 ml/100 g, B: 312 ml/100 g)

====

Tested on: mouse brain
assayExplanation: In situ cerebral perfusion with post-perfusion capillary depletion
Format: in vivo, mice
particulars: perfusion 5 min, share of homogenate
No end group written: not given here.
measurementName: Volume of distribution, Parenchyma % (%)

> print(dat)
                                      chain  endpointunit  recordedmeasurement
1  RFKYGGCLGNKNNFLRLKY [Peptide 90, R F K Y G G C L G N K N N F L R L K Y]             %                   12
2  TFFYGGSRGNRNNFKTAKY [Peptide 25, T F F Y G G S R G N R N N F K T A K Y]             %                    5
3  TFFYGGKRGKRNNFKTAEY [Peptide 79, T F F Y G G K R G K R N N F K T A E Y]             %                   26

(1) TFFYGGCRGKRNNFKTKRY [Peptide 78, T F F Y G G C R G K R N N F K T K R Y]
(2) TFFYGGCRGKKNNFKRAKY [Peptide 8, T F F Y G G C R G K K N N F K R A K Y]
Sorting ascending by Volume of distribution, Parenchyma %, which comes first: 1 or 2 ? Kindly give the label for the entry you pick.
1
(1: 10%, 2: 18%)

====

Tested on: mouse brain
assayExplanation: In situ cerebral perfusion with post-perfusion capillary depletion
Type: in vivo, mice
particulars: perfusion 5 min
No end group written: not given here.
measurementName: Volume of distribution, Parenchyma (ml/100 g)

# count of solved cases: 3
> print(dat)
                                      chain  endpointunit  recordedmeasurement
1  TFFYGGSRGNRNNFKTAKY [Peptide 25, T F F Y G G S R G N R N N F K T A K Y]      ml/100 g                   60
2  TFFYGGKRGKRNNFKTAEY [Peptide 79, T F F Y G G K R G K R N N F K T A E Y]      ml/100 g                   18
3  TFFYGGCRGKKNNFKRAKY [Peptide 8, T F F Y G G C R G K K N N F K R A K Y]      ml/100 g                   46

(I) RFKYGGCLGNKNNFLRLKY [Peptide 90, R F K Y G G C L G N K N N F L R L K Y]
(II) TFFYGGCRGKRNNFKTKRY [Peptide 78, T F F Y G G C R G K R N N F K T K R Y]
Sorting ascending by Volume of distribution, Parenchyma, which comes first: I or II ? Kindly give the label for the entry you pick.
I
(I: 11 ml/100 g, II: 16 ml/100 g)

====

System: mouse brain
assayExplanation: In situ cerebral perfusion with post-perfusion capillary depletion
Format: in vivo, mice
particulars: perfusion 5 min
No end group written: not given here.
measurementName: Volume of distribution, Capillaries (ml/100 g)

> print(dat)
                                  substance  assaytarget                      measurementname  recordedmeasurement
1  R F K Y G G C L G N K N N Y L R L K Y (RFKYGGCLGNKNNYLRLKY-NH2) [Peptide 91]  mouse brain  Volume of distribution, Capillaries                   24

(a) TFFYGGCRAKRNNFKRAKY-NH2 [Peptide 5, T F F Y G G C R A K R N N F K R A K Y]
(b) RFKYGGCLGNKNNFLRLKY [Peptide 90, R F K Y G G C L G N K N N F L R L K Y]
(c) TFFYGGCRGKRNNFKTEEY-NH2 [Peptide 67, T F F Y G G C R G K R N N F K T E E Y]
Hey, quick one: sort these by Volume of distribution, Capillaries, largest value first please. I'd appreciate it if you listed the labels in the requested order.
a, b, c

====

Test system: mouse brain
assayExplanation: In situ cerebral perfusion with post-perfusion capillary depletion
Assay type: in vivo, mice
particulars: perfusion 5 min, share of homogenate
No end group written: not given here.
measurementName: Volume of distribution, Capillaries % (%)

> print(dat)
                                  substance                        measurementname  recordedmeasurement
1  TFFYGGCRGKRNNFKTKRY [Peptide 78, T F F Y G G C R G K R N N F K T K R Y]  Volume of distribution, Capillaries %                   90
2  TFFYGGSRGNRNNFKTAKY [Peptide 25, T F F Y G G S R G N R N N F K T A K Y]  Volume of distribution, Capillaries %                   95
3  RFKYGGCLGNKNNFLRLKY [Peptide 90, R F K Y G G C L G N K N N F L R L K Y]  Volume of distribution, Capillaries %                   88
4  T F F Y G G C R G K R N N F K T K E Y (TFFYGGCRGKRNNFKTKEY-NH2) [Peptide 76]  Volume of distribution, Capillaries %                   40
5  R F K Y G G C L G N K N N Y L R L K Y (RFKYGGCLGNKNNYLRLKY-NH2) [Peptide 91]  Volume of distribution, Capillaries %                   59
6  TFFYGGCRGKKNNFKRAKY [Peptide 8, T F F Y G G C R G K K N N F K R A K Y]  Volume of distribution, Capillaries %                   82
7  TFFYGGCRAKRNNFKRAKY-NH2 [Peptide 5, T F F Y G G C R A K R N N F K R A K Y]  Volume of distribution, Capillaries %                   73
